Target: Transient receptor potential cation channel subfamily V member 1 (Rattus norvegicus, UniProt O35433)
Sequence (O35433 whole entry): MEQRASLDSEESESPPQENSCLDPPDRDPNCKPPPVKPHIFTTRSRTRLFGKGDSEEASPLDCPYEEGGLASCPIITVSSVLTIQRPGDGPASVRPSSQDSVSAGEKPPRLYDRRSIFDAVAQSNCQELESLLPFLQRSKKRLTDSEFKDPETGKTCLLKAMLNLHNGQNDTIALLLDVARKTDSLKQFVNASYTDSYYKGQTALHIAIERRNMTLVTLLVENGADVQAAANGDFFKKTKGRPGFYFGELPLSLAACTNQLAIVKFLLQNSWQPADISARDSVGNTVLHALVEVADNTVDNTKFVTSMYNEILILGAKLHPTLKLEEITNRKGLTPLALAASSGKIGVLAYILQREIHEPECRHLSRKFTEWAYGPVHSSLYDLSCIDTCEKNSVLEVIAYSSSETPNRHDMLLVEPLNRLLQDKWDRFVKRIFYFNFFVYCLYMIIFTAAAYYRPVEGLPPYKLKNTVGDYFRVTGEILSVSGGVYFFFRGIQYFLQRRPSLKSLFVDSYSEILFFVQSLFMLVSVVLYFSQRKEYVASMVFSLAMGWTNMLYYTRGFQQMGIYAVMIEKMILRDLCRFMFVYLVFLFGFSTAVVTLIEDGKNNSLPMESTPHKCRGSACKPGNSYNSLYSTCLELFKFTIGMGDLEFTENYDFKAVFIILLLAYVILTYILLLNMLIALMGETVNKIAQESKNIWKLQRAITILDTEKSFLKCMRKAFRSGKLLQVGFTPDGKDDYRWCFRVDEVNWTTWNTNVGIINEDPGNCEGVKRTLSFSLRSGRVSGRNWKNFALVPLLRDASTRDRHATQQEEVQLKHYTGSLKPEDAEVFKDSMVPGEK
Test: Antagonist activity at rat TRPV1 expressed in CHO cells assessed blocking of capsaicin-induced calcium influx
Assay type: functional, cell-based
pIC50: −log10 of the molar value.
assay-endpoint: pIC50

COC(=O)c1nc(N2CCN(c3ncccc3C(F)(F)F)CC2)[nH]c1-c1ccc(C(F)(F)F)cc1    5.93
O=C(NCC1CCCCN1)c1nc(N2CCN(c3ncccc3C(F)(F)F)CC2)[nH]c1-c1ccc(C(F)(F)F)cc1 (stereo not drawn)    5.53
CCN1CCCC1CNC(=O)c1nc(N2CCN(c3ncccc3C(F)(F)F)CC2)[nH]c1-c1ccc(C(F)(F)F)cc1 (stereo not drawn)    5.39
C[C@@H]1CN(c2ncc(CO)cc2Cl)CCN1c1nc(-c2cc(F)c(F)c(F)c2)c(-c2ccc(C(F)(F)F)cc2)[nH]1    9.00

a. FC(F)(F)c1ccc(-c2[nH]c(N3CCN(c4ncccc4C(F)(F)F)CC3)nc2-c2ccccc2)cc1
b. Fc1cc(-c2nc(N3CCN(c4ncccc4C(F)(F)F)CC3)[nH]c2-c2cc(F)c(F)c(F)c2)cc(F)c1F
I'd appreciate it if you could identify which of a and b has the greater pIC50. Write down the label attached to your selection.
b
(b: 7.36, a: 6.97)

a. Fc1cc(F)cc(-c2nc(N3CCN(c4ncccc4C(F)(F)F)CC3)[nH]c2-c2ccc(C(F)(F)F)cc2)c1
b. FC(F)(F)c1ccc(-c2nc(N3CCN(c4ncccc4C(F)(F)F)CC3)[nH]c2-c2ccc(C(F)(F)F)cc2)cc1
Which has the higher pIC50, a or b ? State your choice using its label.
a
(a: 7.46, b: 6.24)

---

Assay: Tmax in Sprague-Dawley rat at 5 mg/kg, po
Assay type: ADME, organism-based
Design: dose 5 mg/kg, route oral
Details: in vivo
assay-endpoint: Tmax (h)

FC(F)(F)c1ccc(-c2[nH]c(N3CCN(c4ncccc4C(F)(F)F)CC3)nc2-c2ccccc2)cc1    1.3

a. C[C@@H]1CN(c2ncc(CO)cc2Cl)CCN1c1nc(-c2cc(F)c(F)c(F)c2)c(-c2ccc(C(F)(F)F)cc2)[nH]1
b. Fc1cc(-c2nc(N3CCN(c4ncccc4C(F)(F)F)CC3)[nH]c2-c2ccc(C(F)(F)F)cc2)cc(F)c1F
Of the two listed items, which has the higher Tmax? First: a Second: b Give the label under which the chosen entry appears.
a

---

Target: Transient receptor potential cation channel subfamily V member 1 (Rattus norvegicus)
Assay: Antagonist activity at rat TRPV1 expressed in CHO cells assessed blocking of acid-induced calcium influx at pH 5
Type: functional, cell-based
assay-endpoint: IC50 (µM)

OCc1cnc(N2CCN(c3nc(-c4ccccc4)c(-c4ccc(C(F)(F)F)cc4)[nH]3)CC2)c(Cl)c1    0.16

A. FC(F)(F)c1cccc(-c2[nH]c(N3CCN(c4ncccc4C(F)(F)F)CC3)nc2-c2ccccc2)c1
B. CCN1CCCC1CNC(=O)c1nc(N2CCN(c3ncccc3C(F)(F)F)CC2)[nH]c1-c1ccc(C(F)(F)F)cc1 (centres undefined)
When the recorded IC50 values are compared, which is smaller: that of A or that of B ? Kindly state the label of the option you pick.
A

---

Test: Clearance in Sprague-Dawley rat at 1 mg/kg, iv
Type: ADME, organism-based
Parameters: dose 1 mg/kg, route intravenous
Details: in vivo
assay-endpoint: clearance (L/h/kg)

C[C@@H]1CN(c2ncc(CO)cc2Cl)CCN1c1nc(-c2cc(F)c(F)c(F)c2)c(-c2ccc(C(F)(F)F)cc2)[nH]1    0.8

P. Fc1cc(-c2nc(N3CCN(c4ncccc4C(F)(F)F)CC3)[nH]c2-c2ccc(C(F)(F)F)cc2)cc(F)c1F
Q. FC(F)(F)c1ccc(-c2[nH]c(N3CCN(c4ncccc4C(F)(F)F)CC3)nc2-c2ccccc2)cc1
Hi there! Just curious which has the higher clearance between P and Q . Indicate your choice by writing its label.
Q

---

Test: Cmax in Sprague-Dawley rat at 5 mg/kg, po
Type: ADME, organism-based
Parameters: dose 5 mg/kg, route oral
Conditions: in vivo
assay-endpoint: Cmax (ng/mL)

a. Fc1cc(-c2nc(N3CCN(c4ncccc4C(F)(F)F)CC3)[nH]c2-c2ccc(C(F)(F)F)cc2)cc(F)c1F
b. C[C@@H]1CN(c2ncc(CO)cc2Cl)CCN1c1nc(-c2cc(F)c(F)c(F)c2)c(-c2ccc(C(F)(F)F)cc2)[nH]1
Compare a and b by numeric Cmax and name the larger one. When you have decided, please share the label of that item.
b

---

Experiment: Volume of distribution at steady state in Sprague-Dawley rat at 1 mg/kg, iv
Assay type: ADME, organism-based
Set-up: dose 1 mg/kg, route intravenous
Details: in vivo, read-out: Vdss
assay-endpoint: Vd (L/kg)

FC(F)(F)c1ccc(-c2[nH]c(N3CCN(c4ncccc4C(F)(F)F)CC3)nc2-c2ccccc2)cc1    5

P. C[C@@H]1CN(c2ncc(CO)cc2Cl)CCN1c1nc(-c2cc(F)c(F)c(F)c2)c(-c2ccc(C(F)(F)F)cc2)[nH]1
Q. Fc1cc(-c2nc(N3CCN(c4ncccc4C(F)(F)F)CC3)[nH]c2-c2ccc(C(F)(F)F)cc2)cc(F)c1F
Field: entry with larger Vd (options P / Q ). # reply format: chosen label
P

---

Target: Transient receptor potential cation channel subfamily V member 1 (Rattus norvegicus)
Test: Antagonist activity at rat TRPV1 expressed in CHO cells assessed blocking of acid-induced calcium influx at pH 5
Format: functional, cell-based
pIC50: −log10 of the molar value.
assay-endpoint: pIC50

FC(F)(F)c1ccc(-c2nc(N3CCN(c4ncccc4C(F)(F)F)CC3)[nH]c2-c2ccc(C(F)(F)F)cc2)cc1    6.84
CC(C)N1CCN(C(=O)c2nc(N3CCN(c4ncccc4C(F)(F)F)CC3)[nH]c2-c2ccc(C(F)(F)F)cc2)CC1    6.00

1. Fc1cc(-c2nc(N3CCN(c4ncccc4C(F)(F)F)CC3)[nH]c2-c2cc(F)c(F)c(F)c2)cc(F)c1F
2. FC(F)(F)c1ccc(-c2[nH]c(N3CCN(c4ncccc4C(F)(F)F)CC3)nc2-c2ccccc2)cc1
Compare 1 and 2 by numeric pIC50 and name the larger one. Write down the label attached to your selection.
1
(1: 7.49, 2: 6.67)

---

Assay: AUC (0 to infinity) in Sprague-Dawley rat at 1 mg/kg, iv
Assay type: ADME, organism-based
Set-up: time infinity, dose 1 mg/kg, route intravenous
Conditions: plasma
assay-endpoint: AUC(0-inf) (ng·h/mL)

C[C@@H]1CN(c2ncc(CO)cc2Cl)CCN1c1nc(-c2cc(F)c(F)c(F)c2)c(-c2ccc(C(F)(F)F)cc2)[nH]1    1230

A. Fc1cc(-c2nc(N3CCN(c4ncccc4C(F)(F)F)CC3)[nH]c2-c2ccc(C(F)(F)F)cc2)cc(F)c1F
B. FC(F)(F)c1ccc(-c2[nH]c(N3CCN(c4ncccc4C(F)(F)F)CC3)nc2-c2ccccc2)cc1
Which gives the smaller AUC(0-inf) number: A or B ? Identify your pick by its label.
B
(B: 105 ng·h/mL, A: 529 ng·h/mL)

---

Target: Transient receptor potential cation channel subfamily V member 1 (Rattus norvegicus)
Experiment: Antagonist activity at rat TRPV1 expressed in CHO cells assessed blocking of capsaicin-induced calcium influx
Type: functional, cell-based
assay-endpoint: IC50 (µM)

See these solved cases before continuing.
FC(F)(F)c1ccc(-c2c[nH]c(N3CCN(c4ncccc4C(F)(F)F)CC3)n2)cc1    0.861
Fc1cc(-c2nc(N3CCN(c4ncccc4C(F)(F)F)CC3)[nH]c2-c2ccc(C(F)(F)F)cc2)cc(F)c1F    0.007

1. FC(F)(F)c1ccc(-c2nc(N3CCN(c4ncccc4C(F)(F)F)CC3)[nH]c2Cl)cc1
2. FC(F)(F)c1cccc(-c2[nH]c(N3CCN(c4ncccc4C(F)(F)F)CC3)nc2-c2ccccc2)c1
Kindly identify the item with the lower IC50 figure among these two: 1 and 2 Identify your pick by its label.
1
(1: 0.16 µM, 2: 1.24 µM)
